Target: Met receptor (EGFR/Met chimeric cells, EMR) (Homo sapiens)
Construct: expressed in transfected cells; the other entry of the earlier key: EGFR (P00533, Epidermal growth factor receptor)
Sequence (P08581 with tags, fused parts or gaps): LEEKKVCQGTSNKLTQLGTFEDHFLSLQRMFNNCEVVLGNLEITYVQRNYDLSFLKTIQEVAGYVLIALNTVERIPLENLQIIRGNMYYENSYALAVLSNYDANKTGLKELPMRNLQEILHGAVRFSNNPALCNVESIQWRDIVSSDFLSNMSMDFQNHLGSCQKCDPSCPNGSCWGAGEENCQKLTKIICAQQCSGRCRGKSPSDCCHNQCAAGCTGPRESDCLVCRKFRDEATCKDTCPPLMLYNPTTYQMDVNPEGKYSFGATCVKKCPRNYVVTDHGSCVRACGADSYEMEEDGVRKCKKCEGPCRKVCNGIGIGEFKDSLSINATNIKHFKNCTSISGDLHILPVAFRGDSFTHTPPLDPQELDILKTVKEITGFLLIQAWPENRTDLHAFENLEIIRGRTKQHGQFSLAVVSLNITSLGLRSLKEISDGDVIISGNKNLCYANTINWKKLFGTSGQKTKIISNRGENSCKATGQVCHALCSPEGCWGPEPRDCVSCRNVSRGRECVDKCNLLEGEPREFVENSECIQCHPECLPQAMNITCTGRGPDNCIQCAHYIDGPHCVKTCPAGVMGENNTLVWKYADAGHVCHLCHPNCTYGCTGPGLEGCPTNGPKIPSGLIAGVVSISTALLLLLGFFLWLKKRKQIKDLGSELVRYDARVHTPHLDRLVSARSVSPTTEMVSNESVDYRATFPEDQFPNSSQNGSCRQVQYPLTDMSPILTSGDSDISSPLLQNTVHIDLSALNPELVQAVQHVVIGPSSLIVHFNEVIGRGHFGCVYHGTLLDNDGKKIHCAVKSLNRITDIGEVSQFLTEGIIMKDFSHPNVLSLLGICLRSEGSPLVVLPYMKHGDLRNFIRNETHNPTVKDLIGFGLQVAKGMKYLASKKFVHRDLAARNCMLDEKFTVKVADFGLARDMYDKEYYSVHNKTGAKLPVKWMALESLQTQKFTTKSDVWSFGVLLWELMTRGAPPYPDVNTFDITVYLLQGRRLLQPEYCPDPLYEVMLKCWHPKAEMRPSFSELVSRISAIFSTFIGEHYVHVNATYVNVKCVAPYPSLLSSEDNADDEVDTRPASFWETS
Experiment: Met Autophosphorylation Assay; note: test concentration or dose not given here
Format: biochemical
Protocol: Met Autophosphorylation Assay This assay determines Met tyrosine kinase activity by analyzing Met protein tyrosine kinase levels on the Met receptor. a. HNTG (5× stock solution): Dissolve 23.83 g HEPES and 43.83 g NaCl in about 350 ml dH2O. Adjust pH to 7.2 with HCl or NaOH, add 500 ml glycerol and 10 ml Triton X-100, mix, add dH2O to 1 L total volume. […] 2. […] Add ½ the calculated HNTG volume, vortex the tube for 1 min., add the remaining amount of HNTG, vortex for another min. […]
Listed here are compounds together with their documented Met Kinase % Inhibition (P.130).

[
  {
    "compound": "O=C1Nc2ccc(I)cc2C1=Cc1c(F)cccc1F [10735/B08]",
    "target_or_test_system": "Met receptor (EGFR/Met chimeric cells, EMR) (Homo sapiens)",
    "unit_tag": "%",
    "Met Kinase % Inhibition (P.130)": 53.4
  },
  {
    "compound": "CCc1ccc(C=C2C(=O)Nc3ccc(Br)c(C)c32)cc1 [10736/C09]",
    "target_or_test_system": "Met receptor (EGFR/Met chimeric cells, EMR) (Homo sapiens)",
    "unit_tag": "%",
    "Met Kinase % Inhibition (P.130)": 27.9
  },
  {
    "compound": "CCOc1cccc(C=C2C(=O)Nc3ccc(S(=O)(=O)N4CCOCC4)cc32)c1O [10734/F02]",
    "target_or_test_system": "Met receptor (EGFR/Met chimeric cells, EMR) (Homo sapiens)",
    "unit_tag": "%",
    "Met Kinase % Inhibition (P.130)": 55.0
  },
  {
    "compound": "Cc1c(Br)cc(Br)c2c1C(=Cc1ccc(N3CCCC3)cc1)C(=O)N2 [10729/H10]",
    "target_or_test_system": "Met receptor (EGFR/Met chimeric cells, EMR) (Homo sapiens)",
    "unit_tag": "%",
    "Met Kinase % Inhibition (P.130)": 12.8
  },
  {
    "compound": "O=C1Nc2ccc(CCCl)cc2C1=Cc1cccc(F)c1O [10734/G08]",
    "target_or_test_system": "Met receptor (EGFR/Met chimeric cells, EMR) (Homo sapiens)",
    "unit_tag": "%",
    "Met Kinase % Inhibition (P.130)": 82.2
  },
  {
    "compound": "O=C1Nc2ccc(S(=O)(=O)Nc3ccc(C(F)(F)F)cc3)cc2C1=Cc1ccc(Br)s1 [10734/E11]",
    "target_or_test_system": "Met receptor (EGFR/Met chimeric cells, EMR) (Homo sapiens)",
    "unit_tag": "%",
    "Met Kinase % Inhibition (P.130)": 67.1
  },
  {
    "compound": "Cc1c(Br)cc(Br)c2c1C(=Cc1ccc(-c3ccccc3)cc1)C(=O)N2 [10735/H11]",
    "target_or_test_system": "Met receptor (EGFR/Met chimeric cells, EMR) (Homo sapiens)",
    "unit_tag": "%",
    "Met Kinase % Inhibition (P.130)": 22.8
  },
  {
    "compound": "Cc1cc(C=C2C(=O)Nc3c(Br)cc(Br)c(C)c32)cc(C)c1OCc1ccccc1 [10733/H07]",
    "target_or_test_system": "Met receptor (EGFR/Met chimeric cells, EMR) (Homo sapiens)",
    "unit_tag": "%",
    "Met Kinase % Inhibition (P.130)": "−1.3"
  },
  {
    "compound": "Cc1c(Br)ccc2c1C(=Cc1cccc3ccccc13)C(=O)N2 [10735/C09]",
    "target_or_test_system": "Met receptor (EGFR/Met chimeric cells, EMR) (Homo sapiens)",
    "unit_tag": "%",
    "Met Kinase % Inhibition (P.130)": 24.1
  }
]
